- SUBJECT OF TEST: T1, 10E8-GT10.2 epitope scaffold (designed scaffold 10E8-GT10.2 with …, N-linked glycosylation sites added (positions not given))
- T1 chain: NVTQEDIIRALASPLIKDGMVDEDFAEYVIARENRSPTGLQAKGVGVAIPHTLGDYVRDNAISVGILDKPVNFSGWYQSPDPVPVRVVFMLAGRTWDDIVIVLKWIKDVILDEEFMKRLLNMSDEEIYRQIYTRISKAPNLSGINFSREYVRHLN
PARAMETER MEASURED: pKd
Lab note — pKd values are minus log10 of concentrations in M.

Please fill in: pKd reported for NHP-10E8_MPER-GT10v55_W21-07 (antibody, V domains shown) VH: EVQLVESGGGLVQPGGSLRLSCAASGFTFSDYAMDWVRQAPGKGLEWVGFIRSKAYGGTAEYAASVKGRFTISRDDSKNTAYLQMSSLKTEDTAVYYCTRAARGYNFWSGYYTGYGLDSWGQGVVVTVSS VL: EIVMTQSPATLSLSPGERATLSCRTSQSVSSYVAWYQQKPEQAPRLLIYGASSRATGIPDRFSGGGSGTDFTLTISSLEPEDFAVYYCQQYSNWPYSFGQGTKVEIK = 5.12

Please fill in: pKd reported for NHP-Comp_MPER-GT10v55_W26-02 (antibody, V domains shown) VH: QLQLQESGPGLVKPSETLSVTCAVSGGSISGGYGWSWIRQPPGKGLEWIGHIFDSFGNTYYNPSLKSRVTISTDTSKNQFSLKLSSVTAADTAVYYCARETVLGAGDYFDSWGQGVLVTVSS VL: DIQMTQSPSSLSASVGDTVTITCRASQDINNYLAWYQQKPGKAPKPLIYHASYLESGVPSRFSGSGSGTDFTLTISSLQPEDFAIYYCQQHNAYPFTFGPGTKLDIK = 8.50
